Quick reference: inhibition of growth at 10 µM of the listed items.
System: SNB-19
experiment.notes: Cytotoxicity against human SNB19 cells assessed as growth inhibition at 10 uM after 48 hrs by sulphorhodamine B assay
Assay type: functional
measurement.conditions: SNB-19, 48 h, read-out: GI

1. COc1ccc(-c2c3c(nc4nc[nH]c(=O)c24)C(C)CCC3)cc1 (stereo unspecified) = < 10%
2. COc1ccc(-c2c3c(nc4ncn5ncnc5c24)C(C)CCC3)cc1 (stereo unspecified) = < 10%
3. COc1ccc(-c2c3c(nc4ncn(N)c(=N)c24)C(C)CCC3)cc1 (stereo unspecified) = < 10%
4. COc1ccc(-c2c3c(nc4nc(C)[nH]c(=O)c24)C(C)CCC3)cc1 (stereo unspecified) = < 10%
5. CC1CCCc2c1nc1[nH]c(=S)nc(N)c1c2-c1ccc(Cl)cc1 (stereo unspecified) = 10%

INPUT: Recorded inhibition of growth at 10 µM of CC1CCCc2c1nc1nc(SCC(=O)c3ccccc3)nc(N)c1c2-c1ccc(Cl)cc1 (stereo unspecified) , please.
OUTPUT: < 10%

INPUT: Recorded inhibition of growth at 10 µM of CC1CCCc2c1nc1[nH]c(=O)nc(N)c1c2-c1ccc(Cl)cc1 (stereo unspecified) , please.
OUTPUT: 16.6%

INPUT: Recorded inhibition of growth at 10 µM of CC1CCCc2c1nc(NC(=S)NC(=O)c1ccccc1)c(C#N)c2-c1ccc(Cl)cc1 (stereo unspecified) , please.
OUTPUT: 14.1%

----------
System: LOX IMVI
experiment.notes: Cytotoxicity against human LOXIMVI cells assessed as growth inhibition at 10 uM after 48 hrs by sulphorhodamine B assay
Assay type: functional
measurement.conditions: read-out: GI
Quick reference: inhibition of growth at 10 µM of the listed items.

// known answers, use as guide
1. CC1CCCc2c1nc(N)c(C#N)c2-c1ccc(Cl)cc1 (stereo not drawn) = < 10%
2. CC1CCCc2c1nc1[nH]c(=S)nc(N)c1c2-c1ccc(Cl)cc1 (stereo not drawn) = < 10%

INPUT: Form: Entry = CCSc1nc(N)c2c(-c3ccc(Cl)cc3)c3c(nc2n1)C(C)CCC3 (stereo not drawn) | System = LOX IMVI | inhibition of growth at 10 µM = ____
OUTPUT: < 10%

----------
Test system: K562
experiment.notes: Cytotoxicity against human K562 cells assessed as growth inhibition at 10 uM after 48 hrs by sulphorhodamine B assay
Assay type: functional
measurement.conditions: K562, 48 h, read-out: GI
Quick reference: inhibition of growth at 10 µM of the listed items.

// known answers, use as guide
1) COc1ccc(-c2c3c(nc4ncn5ncnc5c24)C(C)CCC3)cc1 (stereo not drawn) = < 10%
2) COc1ccc(-c2c3c(nc4nc[nH]c(=O)c24)C(C)CCC3)cc1 (stereo not drawn) = < 10%

Please turn your attention to the following entry.
INPUT: Form: Entry = COc1ccc(-c2c3c(nc4ncn(N)c(=N)c24)C(C)CCC3)cc1 (stereo not drawn) | System = K562 | inhibition of growth at 10 µM = ____
OUTPUT: < 10%

----------
Test system: SNB-19
experiment.notes: Cytotoxicity against human SNB19 cells assessed as growth inhibition at 10 uM after 48 hrs by sulphorhodamine B assay
Type: functional
measurement.conditions: SNB-19, 48 h, read-out: GI
assay.endpoint: inhibition of growth at 10 µM

1) CC1CCCc2c1nc1ncnc(N)c1c2-c1ccc(Cl)cc1 (stereo not drawn) = 21.3%
2) CCSc1nc(N)c2c(-c3ccc(Cl)cc3)c3c(nc2n1)C(C)CCC3 (stereo not drawn) = < 10%

Please turn your attention to the following entry.
INPUT: Recorded inhibition of growth at 10 µM of CC1CCCc2c1nc1[nH]c(=S)n(-c3ccccc3)c(=N)c1c2-c1ccc(Cl)cc1 (stereo not drawn) , please.
OUTPUT: < 10%

// data source = ChEMBL document CHEMBL2375313
